Sourced from patent US20060257938A1

Below: a set of entries, each annotated with reported DR/DR AA.
Assay: Probe fluorescence ratio response to arachidonic acid relative to ADIFAB2
Format: binding
Details: arachidonic acid; response relative to ADIFAB2
Please reply with the value in numeric form only.

Recorded results for 4 molecules are shown here.
molecule	DR/DR AA
113M, 72A (protein, listed as Rattus norvegicus, PEPTIDE (1)...(131) wild-type rat intestinal fatty acid binding protein) AFDGTWKVDRNENYEKFMEKMGINVVKRKLGAHDNLKLTITQEGNKFTVKESSNFRNIDVVFELGVDFAYSAADGTELTGTWTMEGNKLVGKFKRVDNGKELIAVREISGNEMIQTYTYEGVEAKRIFKKE	1.33
11C, 72A (protein, listed as Rattus norvegicus, PEPTIDE (1)...(131) wild-type rat intestinal fatty acid binding protein) AFDGTWKVDRCENYEKFMEKMGINVVKRKLGAHDNLKLTITQEGNKFTVKESSNFRNIDVVFELGVDFAYSAADGTELTGTWTMEGNKLVGKFKRVDNGKELIAVREISGNELIQTYTYEGVEAKRIFKKE	0.52
34C, 72A (protein, listed as Rattus norvegicus, PEPTIDE (1)...(131) wild-type rat intestinal fatty acid binding protein) AFDGTWKVDRNENYEKFMEKMGINVVKRKLGAHCNLKLTITQEGNKFTVKESSNFRNIDVVFELGVDFAYSAADGTELTGTWTMEGNKLVGKFKRVDNGKELIAVREISGNELIQTYTYEGVEAKRIFKKE	0.34
17M, 72A (protein, listed as Rattus norvegicus, PEPTIDE (1)...(131) wild-type rat intestinal fatty acid binding protein) AFDGTWKVDRNENYEKMMEKMGINVVKRKLGAHDNLKLTITQEGNKFTVKESSNFRNIDVVFELGVDFAYSAADGTELTGTWTMEGNKLVGKFKRVDNGKELIAVREISGNELIQTYTYEGVEAKRIFKKE	0.59

Tell me the measured DR/DR AA of 74L, 72A (protein, listed as Rattus norvegicus, PEPTIDE (1)...(131) wild-type rat intestinal fatty acid binding protein) AFDGTWKVDRNENYEKFMEKMGINVVKRKLGAHDNLKLTITQEGNKFTVKESSNFRNIDVVFELGVDFAYSAALGTELTGTWTMEGNKLVGKFKRVDNGKELIAVREISGNELIQTYTYEGVEAKRIFKKE , please.
0.222

Then what about the molecule 102D, 72A (protein, listed as Rattus norvegicus, PEPTIDE (1)...(131) wild-type rat intestinal fatty acid binding protein) AFDGTWKVDRNENYEKFMEKMGINVVKRKLGAHDNLKLTITQEGNKFTVKESSNFRNIDVVFELGVDFAYSAADGTELTGTWTMEGNKLVGKFKRVDNGKEDIAVREISGNELIQTYTYEGVEAKRIFKKE ?
0.52
